Exercise: state measured mortality at 12.5 ppm for each of the compounds provided.
system: Myzus persicae (Green Peach Aphid); assay: Myzus persicae feeding activity (sucrose solution, Parafilm); type: in vivo; settings: 120 h, test rate 12.5 ppm, in sucrose solution, 5 days after infestation

## Input What measured mortality at 12.5 ppm goes with C[C@H](NC(=O)c1cc(C(F)(F)F)cc(C(F)(F)F)c1)c1ncnn1-c1ncccn1 ?
## Output ≥ 80%

## Input // same read-out, input: CC(c1ncnn1-c1ncccn1)N(C)C(=O)c1cc(C(F)(F)F)cc(C(F)(F)F)c1 (centres unmarked)
## Output ≥ 80%

## Input // same read-out, input: CC(NC(=O)c1cc(C(F)(F)F)cc(C(F)(F)F)c1)c1ncnn1-c1ncccn1 (centres unmarked)
## Output ≥ 80%

## Input // same read-out, input: CC(c1ncnn1-c1ncccn1)N(CCC(F)(F)F)C(=O)c1cc(C(F)(F)F)cc(C(F)(F)F)c1 (centres unmarked)
## Output ≥ 80%

## Input // same read-out, input: CC(c1ncnn1-c1ncccn1)N(CC1CC1)C(=O)c1cc(Br)cc(C(F)(F)F)c1 (centres unmarked)
## Output ≥ 80%

## Input // same read-out, input: CCN(C(=O)c1cc(C(F)(F)F)cc(C(F)(F)F)c1)C(C)c1ncnn1-c1ncccn1 (centres unmarked)
## Output ≥ 80%

## Input // same read-out, input: CC(c1ncnn1-c1ncccn1)N(CCF)C(=O)c1cc(C(F)(F)F)cc(C(F)(F)F)c1 (centres unmarked)
## Output ≥ 80%

## Input // same read-out, input: CC(c1ncnn1-c1ncccn1)N(CC1CC1)C(=O)c1cc(C(F)(F)F)cc(C(F)(F)F)c1 (centres unmarked)
## Output ≥ 80%

// provenance: patent US20210068395A1
